- System: T1, Anti-CD28 Fab (SEQ ID NOs: 696, 697)
- T1 construct: Biotinylated and captured on neutravidin coated plates in the phage ELISA
- T1 sequence (VH, as listed by the source, chain 1 of 2): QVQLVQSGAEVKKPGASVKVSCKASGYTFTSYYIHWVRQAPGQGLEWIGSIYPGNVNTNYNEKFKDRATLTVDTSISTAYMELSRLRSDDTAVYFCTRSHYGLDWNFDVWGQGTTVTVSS
- T1 sequence (VL, as listed by the source, chain 2 of 2): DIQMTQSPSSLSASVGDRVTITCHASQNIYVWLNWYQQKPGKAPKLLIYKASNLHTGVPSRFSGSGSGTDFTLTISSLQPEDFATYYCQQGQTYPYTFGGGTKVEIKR
- Test description: phage binding ELISA, biotinylated Fab on neutravidin plate, anti-M13 HRP detection;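 also: crude clonal phage supernatants added to Fab-coated wells pretreated with CD28 antigen or with blocking buffer only, bound phage measured after washing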
The following binders are listed with their measured Anti-CD28 Fab (SEQ ID NOs: 696, 697) signal values.

Solved cases (3 shown):
{"Binder": "YCDGHLPQYMWKCL (Clonal phage of the Peptide-87 library, tested as crude supernatant; not shown: pIII of the bacteriophage to which the peptide is fused) [Phage-559]", "Result": 2.29}
{"Binder": "YCDGHSSEYMAKCL (Clonal phage of the Peptide-87 library, tested as crude supernatant; not shown: pIII of the bacteriophage to which the peptide is fused) [Phage-565]", "Result": 2.28}
{"Binder": "YCEGHAAEYMEKCL (Clonal phage of the Peptide-87 library, tested as crude supernatant; not shown: pIII of the bacteriophage to which the peptide is fused) [Phage-556]", "Result": 2.3}

Problem: Report measured Anti-CD28 Fab (SEQ ID NOs: 696, 697) signal; entry is YCDGHSREYIAKCL (Clonal phage of the Peptide-87 library, tested as crude supernatant; not shown: pIII of the bacteriophage to which the peptide is fused) [Phage-558]
Result: 2.29

Problem: Report Anti-CD28 Fab (SEQ ID NOs: 696, 697) signal for YCEGHSSEYMLKCL (Clonal phage of the Peptide-87 library, tested as crude supernatant; not shown: pIII of the bacteriophage to which the peptide is fused) [Phage-555]
Result: 2.3

Problem: Please report Anti-CD28 Fab (SEQ ID NOs: 696, 697) signal for the following binder: YCDGHVPEYMAKCL (Clonal phage of the Peptide-87 library, tested as crude supernatant; not shown: pIII of the bacteriophage to which the peptide is fused) [Phage-560]
Result: 2.29

Problem: In one line, give reported Anti-CD28 Fab (SEQ ID NOs: 696, 697) signal of the entry YCDGHSQEYMMKCL (Clonal phage of the Peptide-87 library, tested as crude supernatant; not shown: pIII of the bacteriophage to which the peptide is fused) [Phage-563] .
Result: 2.28

Problem: Give the measured Anti-CD28 Fab (SEQ ID NOs: 696, 697) signal for YCDGHAPQYMRKCL (Clonal phage of the Peptide-87 library, tested as crude supernatant; not shown: pIII of the bacteriophage to which the peptide is fused) [Phage-553]
Result: 2.3

Problem: Consider the binder YCSGHLPQYMQKCL (Clonal phage of the Peptide-87 library, tested as crude supernatant; not shown: pIII of the bacteriophage to which the peptide is fused) [Phage-564] and give its recorded Anti-CD28 Fab (SEQ ID NOs: 696, 697) signal.
Result: 2.28

Problem: Supply recorded Anti-CD28 Fab (SEQ ID NOs: 696, 697) signal for YCDGHLPMYMMKCL (Clonal phage of the Peptide-87 library, tested as crude supernatant; not shown: pIII of the bacteriophage to which the peptide is fused) [Phage-561] here.
Result: 2.28

Problem: Give Anti-CD28 Fab (SEQ ID NOs: 696, 697) signal for the following binder: YCQGHAPEYMAKCL (Clonal phage of the Peptide-87 library, tested as crude supernatant; not shown: pIII of the bacteriophage to which the peptide is fused) [Phage-562]
Result: 2.28

Problem: Dear colleague, please send me the reported Anti-CD28 Fab (SEQ ID NOs: 696, 697) signal for YCDGHAKEYMWKCL (Clonal phage of the Peptide-87 library, tested as crude supernatant; not shown: pIII of the bacteriophage to which the peptide is fused) [Phage-554] when you can.
Result: 2.3

Problem: Tell me its Anti-CD28 Fab (SEQ ID NOs: 696, 697) signal given YCEGHSAQYMSKCL (Clonal phage of the Peptide-87 library, tested as crude supernatant; not shown: pIII of the bacteriophage to which the peptide is fused) [Phage-557] as the entry.
Result: 2.29
